Test system: A2780
Assay: Cellular A2780 viability assay (CellTiter-Glo, 72 hours)
Assay type: cell-based
Conditions: Homo sapiens
Description: Human T-cell acute lymphoblastic leukemia cell line, MOLT-4 (ATCC, Cat #CRL-1582), Human multiple myeloma cell line, RPMI-8226 (Invitrogen, Cat #22400-089) and MM.1S (ATCC, Cat #CRL-2974), NSCLC (Non-small cell lung cancer) cell line H460 (ATCC, Cat #HTB-177), Human colon colorectal carcinoma cell line HCT116 (ATCC, Cat #CCL-247), Human acute monocytic leukemia cell line MV4-11 (ATCC, Cat #CRL-9591), OVCAR-3 (ATCC, Cat #HTB-161) and A2780 (ECACC, Cat #93112519) were obtained from ATCC. […]
measuredAttribute: IC50

> print(dat)
                                   compound  measuredon    endpointresult
1  CC(C)c1cnn2c(NCc3c(Cl)cccc3-n3ccc(C(C)(C)O)n3)nc(Nc3cccc4[nH]ccc34)nc12       A2780  1000 to 10000 nM
2  CC(C)c1cnn2c(NCc3ccccc3-c3ccc4ccccc4n3)nc(N3CCC(O)(CN)CC3)nc12       A2780         ≤ 1000 nM
3  CC(C)c1cnn2c(NCc3c(Cl)cccc3-c3cc4ccccc4[nH]3)nc(N3CCC(N)CC3)nc12       A2780         ≤ 1000 nM
4  CC(C)c1cnn2c(NCc3ccccc3-c3nccc4ccccc34)nc(NC[C@H]3CCNC[C@@H]3O)nc12       A2780         ≤ 1000 nM

query: Requested field: IC50. Item: CCC(O)(CC)c1ccn(-c2cccc(Cl)c2CNc2nc(N3CCC(N)CC3)nc3c(C(C)C)cnn23)n1
result: 1000 to 10000 nM

query: Input CC(C)c1cnn2c(NCc3cccc4ccc(C(C)(C)O)nc34)nc(N3CCC(N)CC3)nc12
result: ≤ 1000 nM

query: Input Cc1cccc(-c2cc(C(C)(C)O)nn2C)c1CNc1nc(N2CCC(N)CC2)nc2c(C(C)C)cnn12
result: ≤ 1000 nM

Hey, just so you know, these numbers are from patent US11945822B2.
